# Test system: PfAP2-EXP AP2 domain (GST-tagged)
# experimentNotes: gcPBM binding intensity (ln(normalized median fluorescence intensity)); higher = stronger DNA binding
Whole data set: some 25,000 sequences, median “ln(normalized median fluorescence intensity)” near 8.6, cut for the highest 2% near 10. The sample holds the highest values, similar sequences and a random draw of the others, so the mix is not that of the screen.
Outcome label depends on gcPBM binding intensity (ln) relative to 9: at/above gives true, below gives false.

Examples with answers:
> print(dat)
                               itemsequence  grouplabel
1  TGTTAATTAAAGGACTGTACACTAATAATTCTATAA [XGTACX_site5195]       false
2  ACTTCCTATATTTATGCATGCATTTTATTAAAAAAT [TGCATGCA_site747]        true
3  AAAAAAATTAAACACACACACACATATATATATATA [CACACA_site4718]        true
4  AAAAAAAAAAAGAAGGGTACATATTATATATAATAT [XGTACX_site6204]       false
5  AATCAATAAATAAAAACATGCATATATATATATATA [TGCATGCA_site438]        true

Q. Given ATATATATATATATATGTACACATATTATAAAAAAA [XGTACX_site8644] , state whether its gcPBM binding intensity (ln) is at least 9.
A. true

Q. Given AATATGTATCCATACACACATACATTTTATTTGCAA [CACACA_site874] , state whether its gcPBM binding intensity (ln) is at least 9.
A. false

Q. Given ATATATATATATATATGTACACATAAAAAGAAAGAA [XGTACX_site1603] , state whether its gcPBM binding intensity (ln) is at least 9.
A. true

Q. Given AGAAATGAAATATACACACATACATATATACATATA [CACACA_site4033] , state whether its gcPBM binding intensity (ln) is at least 9.
A. false

Q. Given AAATGTTGAAATGATACACACATATATATATATATA [CACACA_site2517] , state whether its gcPBM binding intensity (ln) is at least 9.
A. true

Q. Given TATTAAAATTAAAAAAAAAAAAAAAAGCAATAAAAA [XGTACX_negctrl_site426] , state whether its gcPBM binding intensity (ln) is at least 9.
A. false

Q. Given ATAATAATAGTAATATGTACATATATATATATATAT [XGTACX_site7437] , state whether its gcPBM binding intensity (ln) is at least 9.
A. true

Q. Given TAAAAAAAAAAAATGTGTACATATTATATATATCTT [XGTACX_site2615] , state whether its gcPBM binding intensity (ln) is at least 9.
A. false

Q. Given TTTATAATTTATATCACACATATATCTGTAATAAAT [CACACA_site5048] , state whether its gcPBM binding intensity (ln) is at least 9.
A. false

Q. Given AAAAAAAAATTAAAAACACACATATAAATAAATATA [CACACA_site6845] , state whether its gcPBM binding intensity (ln) is at least 9.
A. false
